We begin with a simple list: items and their reported abundance fitness.
B1: WW domain-binding protein 4, residues 8 to 43; numbered along this chain, O75554 (parent)
chain: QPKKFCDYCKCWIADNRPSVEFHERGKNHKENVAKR

variants of: B1; assay: abundance fitness (aPCA) (normalised: wild type 0, dead -1); higher = more abundant; growth selection in yeast, the domain comes from the species named; conditions: Homo sapiens
endpoint-name: abundance fitness

mutant_id=W12R endpoint_name="abundance fitness" reported=-0.537
mutant_id=E24S endpoint_name="abundance fitness" reported=-0.232
mutant_id=K3V endpoint_name="abundance fitness" reported=-0.279
mutant_id=H23R endpoint_name="abundance fitness" reported=-0.724
mutant_id=A34S endpoint_name="abundance fitness" reported=0.055
mutant_id=H29C endpoint_name="abundance fitness" reported=-0.464
mutant_id=F5D endpoint_name="abundance fitness" reported=-0.533
mutant_id=E31L endpoint_name="abundance fitness" reported=-0.229
mutant_id=W12M endpoint_name="abundance fitness" reported=0.075
mutant_id=P18V endpoint_name="abundance fitness" reported=-0.198
mutant_id=N32W endpoint_name="abundance fitness" reported=-0.115
mutant_id=H23N endpoint_name="abundance fitness" reported=-0.967
mutant_id=D7M endpoint_name="abundance fitness" reported=-0.241
mutant_id=P18F endpoint_name="abundance fitness" reported=-0.431
mutant_id=K35A endpoint_name="abundance fitness" reported=0.216
mutant_id=C6A endpoint_name="abundance fitness" reported=-0.471
mutant_id=W12K endpoint_name="abundance fitness" reported=-0.557
mutant_id=I13V endpoint_name="abundance fitness" reported=-0.089
mutant_id=V33R endpoint_name="abundance fitness" reported=-0.149
mutant_id=E21K endpoint_name="abundance fitness" reported=0.007
mutant_id=N32P endpoint_name="abundance fitness" reported=-0.473
mutant_id=I13H endpoint_name="abundance fitness" reported=-0.368
mutant_id=P18C endpoint_name="abundance fitness" reported=-0.113
mutant_id=P18L endpoint_name="abundance fitness" reported=-0.236
mutant_id=K3Q endpoint_name="abundance fitness" reported=0.082
mutant_id=K30I endpoint_name="abundance fitness" reported=0.085
mutant_id=I13A endpoint_name="abundance fitness" reported=-0.531
mutant_id=F22E endpoint_name="abundance fitness" reported=0.07
mutant_id=G26K endpoint_name="abundance fitness" reported=-0.257
mutant_id=E21C endpoint_name="abundance fitness" reported=-0.36
mutant_id=E21S endpoint_name="abundance fitness" reported=-0.167
mutant_id=K4L endpoint_name="abundance fitness" reported=-0.366
mutant_id=A14S endpoint_name="abundance fitness" reported=-0.343
mutant_id=V20D endpoint_name="abundance fitness" reported=-0.591
mutant_id=P18Q endpoint_name="abundance fitness" reported=-0.12
mutant_id=A14D endpoint_name="abundance fitness" reported=-0.2
mutant_id=C6R endpoint_name="abundance fitness" reported=-0.691
mutant_id=K10V endpoint_name="abundance fitness" reported=-0.551
mutant_id=V33I endpoint_name="abundance fitness" reported=-0.404
mutant_id=K30V endpoint_name="abundance fitness" reported=-0.036
mutant_id=K4Q endpoint_name="abundance fitness" reported=-0.245
mutant_id=C11Q endpoint_name="abundance fitness" reported=0.139
mutant_id=F5M endpoint_name="abundance fitness" reported=-0.085
mutant_id=E21F endpoint_name="abundance fitness" reported=-0.437
mutant_id=H23M endpoint_name="abundance fitness" reported=-0.569
mutant_id=N16D endpoint_name="abundance fitness" reported=-0.233
mutant_id=R17Y endpoint_name="abundance fitness" reported=-0.235
mutant_id=C11I endpoint_name="abundance fitness" reported=0.002
mutant_id=D7T endpoint_name="abundance fitness" reported=0.154
mutant_id=E21T endpoint_name="abundance fitness" reported=-0.034
mutant_id=K4G endpoint_name="abundance fitness" reported=-0.497
mutant_id=N32H endpoint_name="abundance fitness" reported=-0.172
mutant_id=A34H endpoint_name="abundance fitness" reported=-0.001
mutant_id=V33M endpoint_name="abundance fitness" reported=-0.074
mutant_id=E31V endpoint_name="abundance fitness" reported=-0.11
mutant_id=R17E endpoint_name="abundance fitness" reported=-0.011
mutant_id=K10R endpoint_name="abundance fitness" reported=-0.088
mutant_id=V20M endpoint_name="abundance fitness" reported=-0.015
mutant_id=W12L endpoint_name="abundance fitness" reported=-0.087
mutant_id=C9G endpoint_name="abundance fitness" reported=-0.525
mutant_id=P2L endpoint_name="abundance fitness" reported=0.045
mutant_id=A34C endpoint_name="abundance fitness" reported=-0.135
mutant_id=V33N endpoint_name="abundance fitness" reported=-0.572
mutant_id=K30W endpoint_name="abundance fitness" reported=-0.345
mutant_id=C9L endpoint_name="abundance fitness" reported=-1.13
mutant_id=G26D endpoint_name="abundance fitness" reported=0.015
mutant_id=C9T endpoint_name="abundance fitness" reported=-0.635
mutant_id=K30Q endpoint_name="abundance fitness" reported=-0.02
mutant_id=K30P endpoint_name="abundance fitness" reported=-0.246
mutant_id=V33G endpoint_name="abundance fitness" reported=-0.22
mutant_id=Q1K endpoint_name="abundance fitness" reported=-0.879
mutant_id=H23A endpoint_name="abundance fitness" reported=-0.739
mutant_id=Y8K endpoint_name="abundance fitness" reported=-0.309
mutant_id=R25Q endpoint_name="abundance fitness" reported=0.049
mutant_id=C11K endpoint_name="abundance fitness" reported=-0.066
mutant_id=S19M endpoint_name="abundance fitness" reported=-0.07
mutant_id=C11T endpoint_name="abundance fitness" reported=0.087
mutant_id=R36G endpoint_name="abundance fitness" reported=0.16
mutant_id=N32D endpoint_name="abundance fitness" reported=-0.49
mutant_id=N28L endpoint_name="abundance fitness" reported=0.046
mutant_id=E31W endpoint_name="abundance fitness" reported=-0.955
mutant_id=G26E endpoint_name="abundance fitness" reported=0.153
mutant_id=P18G endpoint_name="abundance fitness" reported=-0.179
mutant_id=H23C endpoint_name="abundance fitness" reported=-0.561
mutant_id=Q1E endpoint_name="abundance fitness" reported=-0.941
mutant_id=Y8S endpoint_name="abundance fitness" reported=-0.448
mutant_id=K4S endpoint_name="abundance fitness" reported=-0.212
mutant_id=D15K endpoint_name="abundance fitness" reported=-0.367
mutant_id=K4M endpoint_name="abundance fitness" reported=0.13
mutant_id=P2A endpoint_name="abundance fitness" reported=0.007
mutant_id=Q1G endpoint_name="abundance fitness" reported=-0.548
